Target: DRB1*0901 (Homo sapiens, UniProt P01903+P01911, A100R/A103E/D57H/D86V/F55Y/F60I/F76Y/I96F/K127E/L162R/M171V/P40D/Q125H/Q99R/R33Q/R42F/S133A/S66N/T210M/V115G/W38K/Y107V/Y59G/Y89S)
Assay: biochemical
Assay type: binding
pIC50: −log10 of the molar value.
METRIC NAME: pIC50

Reference set (4 entries):
| COMPOUND | pIC50 |
| --- | --- |
| CC[C@H](C)[C@H](NC(=O)[C@H](C)NC(=O)[C@@H](NC(=O)[C@@H](NC(=O)[C@H](CC(N)=O)NC(=O)[C@H](CC(C)C)NC(=O)[C@H](Cc1ccccc1)NC(=O)[C@H](CCCCN)NC(=O)[C@@H](NC(=O)[C@H](CCCNC(=N)N)NC(=O)[C@H](CCC(N)=O)NC(=O)[C@H](CCCCN)NC(=O)[C@@H](N)CCC(=O)O)[C@@H](C)O)[C@@H](C)O)C(C)C)C(=O)N1CCC[C@H]1C(=O)N[C@@H](CC(=O)O)C(=O)O [Peptide 1601.19] | 6.55 |
| CC[C@H](C)[C@H](NC(=O)[C@H](CO)NC(=O)[C@@H](NC(=O)CNC(=O)[C@H](CCC(=O)O)NC(=O)[C@@H]1CCCN1)C(C)C)C(=O)N[C@@H](Cc1c[nH]c2ccccc12)C(=O)N[C@@H](CC(N)=O)C(=O)N1CCC[C@H]1C(=O)N[C@H](C(=O)N[C@@H](CC(C)C)C(=O)N[C@@H](CC(C)C)C(=O)N[C@@H](Cc1c[nH]c2ccccc12)C(=O)N[C@@H](CCC(N)=O)C(=O)N1CCC[C@H]1C(=O)O)[C@@H](C)CC [Peptide 68.0033] | < 4.70 |
| CC(C)C[C@H](NC(=O)[C@H](CCC(N)=O)NC(=O)[C@H](CC(=O)O)NC(=O)[C@H](CCC(=O)O)NC(=O)[C@H](CO)NC(=O)[C@H](CC(C)C)NC(=O)[C@@H]1CCCN1C(=O)[C@@H](NC(=O)[C@@H](N)[C@@H](C)O)C(C)C)C(=O)N[C@@H](CC(C)C)C(=O)N[C@@H](Cc1ccc(O)cc1)C(=O)N[C@@H](CC(C)C)C(=O)N1CCC[C@H]1C(=O)N[C@@H](Cc1ccccc1)C(=O)N[C@@H](CCCNC(=N)N)C(=O)O [Peptide 68.0147] | < 4.70 |
| CSCC[C@H](NC(=O)[C@H](CC(C)C)NC(=O)[C@@H]1CCCN1C(=O)[C@@H](NC(=O)[C@H](CS)NC(=O)[C@H](CC(=O)O)NC(=O)[C@@H](NC(=O)[C@H](CCCNC(=N)N)NC(=O)[C@H](CC(C)C)NC(=O)[C@@H](NC(=O)[C@H](Cc1ccc(O)cc1)NC(=O)[C@@H](N)CC(N)=O)[C@@H](C)O)C(C)C)[C@@H](C)O)C(=O)N[C@@H](Cc1ccc(O)cc1)C(=O)N[C@@H](CO)C(=O)N[C@@H](CC(C)C)C(=O)O [Peptide 68.0112] | < 4.70 |

Read the next record carefully.
Using the record for CSCC[C@H](NC(=O)[C@@H](NC(=O)[C@H](CCCCN)NC(=O)[C@@H](NC(=O)[C@H](C)NC(=O)[C@H](CC(=O)O)NC(=O)[C@@H](N)[C@@H](C)O)C(C)C)C(C)C)C(=O)N[C@@H](CC(=O)O)C(=O)N[C@@H](CC(C)C)C(=O)N1CCC[C@H]1C(=O)N[C@H](C(=O)N[C@@H](CCC(N)=O)C(=O)N[C@@H](CCC(=O)O)C(=O)N1CCC[C@H]1C(=O)N[C@@H](C)C(=O)O)[C@@H](C)O [Peptide 68.0074] , state its measured pIC50.
< 4.70

----------
Target: A*6802 (Homo sapiens, UniProt P04439, A269V/D140Y/D185E/E176V/E277Q/E87N/F33Y/G231S/I121R/I166T/I218V/L180W/L300P/L318F/N151K/P208A/P217A/Q86R/R138H/R169H/S129P/T345S/V36M)
Assay: biochemical
Assay type: binding
pIC50: −log10 of the molar value. No end group written: not given here.
The sequences listed here are annotated with their pIC50.

Reference set (5 entries):
| SEQUENCE ENTRY | RESULT |
| --- | --- |
| KTITVSAEV [Peptide 9013.0083] | 7.82 |
| TLGIMIGVL [Peptide 9013.0108] | < 4.70 |
| RMLQHLLFI [Peptide 1545.04] | < 4.70 |
| LLLSNGNRTL [Peptide 9013.0227] | < 4.70 |
| KLMSNLLSI [Peptide 1578.21] | < 4.70 |

Using the record for SLLTFWNPPTV [Peptide 9013.0256] , state its measured pIC50.
5.64

Using the record for IQNIIQNDV [Peptide 9013.0032] , state its measured pIC50.
< 4.70

----------
Target: DRB1*0301 (Homo sapiens, UniProt P01903+P01911, A100K/A102G/A103R/A169T/F55Y/I96L/K41T/L162R/M171V/P40S/Q125H/Q178H/Q39Y/R42S/S66N/T106N/T262R/W38E/Y61H)
Sequence (P01903 26-254 limits assumed, other chains not shown): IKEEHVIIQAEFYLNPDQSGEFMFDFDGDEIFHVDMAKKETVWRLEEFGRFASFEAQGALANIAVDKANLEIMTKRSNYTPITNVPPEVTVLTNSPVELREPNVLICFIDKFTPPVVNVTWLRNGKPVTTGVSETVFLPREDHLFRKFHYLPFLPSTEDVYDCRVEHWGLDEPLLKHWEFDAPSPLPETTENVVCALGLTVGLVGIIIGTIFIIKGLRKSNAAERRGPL
Assay: biochemical
Type: binding
No end group written: not given here.
Response field label: string, one of yes (1) (IC50 strictly below 200 nM) or no (0).

Lab note: IC50 threshold 200 nM. Does this sequence come in strictly under it? WKLIRMECALLYTAK [Peptide 90.0199]
yes (1)

Lab note: IC50 threshold 200 nM. Does this sequence come in strictly under it? TGWFEVEAVIERRTG [Peptide 90.0075]
yes (1)

----------
Biological target: DRB1*0901 (Homo sapiens, UniProt P01903+P01911, A100R/A103E/D57H/D86V/F55Y/F60I/F76Y/I96F/K127E/L162R/M171V/P40D/Q125H/Q99R/R33Q/R42F/S133A/S66N/T210M/V115G/W38K/Y107V/Y59G/Y89S)
Test: biochemical
Assay type: binding
No end group written: not given here.
METRIC NAME: log10 IC50 (log10 of the value in µM)
Field: value | Transform: log10 | Quantity: IC50 | Unit: µM

| SEQUENCE ENTRY | log10 IC50 |
| --- | --- |
| DSEIAYKYAQLADSD [Peptide 89.0051] | 0.73 |
| KNCILIHGAPNTGKS [Peptide 89.0055] | 1.23 |
| GKSLFGMSLMKFLQG [Peptide 89.0019] | -0.83 |
| FQVIELQMALETLSK [Peptide 89.0182] | -0.12 |
| RLNVCQDKILTHYEN [Peptide 90.0160] | -1.30 |

Read the next record carefully.
Using the record for KERHVNANKRFHNIM [Peptide 1543.59] , state its measured log10 IC50.
0.45

----------
Target: DRB5*0101 (Homo sapiens, UniProt P01903+Q30154)
Experiment: biochemical
No end group written: not given here.
METRIC NAME: IC50 (µM)
Number only, in µM; omit the unit.

Reference set (4 entries):
| SEQUENCE ENTRY | NUMERIC VALUE |
| --- | --- |
| WKAVRHENVLYYKAR [Peptide 90.0230] | 0.762 |
| TTPIIHKLGDRNSLK [Peptide 1601.17] | 5.57 |
| QQLLQVQTAHADKQT [Peptide 89.0115] | 0.086 |
| DSQIAFQYAQLADVD [Peptide 89.0130] | 17.1 |

Provide IC50, recorded with DRB5*0101 (Homo sapiens, UniProt P01903+Q30154), of IKFFQGSVISFVNSQ [Peptide 89.0136]
5.5

----------
Target: A*0206 (Homo sapiens, UniProt P04439, D140Y/D185E/D98H/E176V/E277Q/F33Y/G131W/G231S/I119V/I121R/I166T/I218V/L300P/L318F/N151K/N90K/P208A/P217A/Q86G/Q94H/R138H/R169H/T345S)
Test: biochemical
Assay type: binding
No end group written: not given here.
METRIC NAME: IC50

| SEQUENCE ENTRY | IC50 |
| --- | --- |
| TILQQLLFI [Peptide 1525.26] | 91 nM |
| QLSTQELFI [Peptide 9013.0057] | 7470 nM |
| RLTVTTITVYA [Peptide 9013.0305] | 1100 nM |
| PLYSWRINGI [Peptide 9013.0236] | > 20000 nM |
| GMIDDVTPI [Peptide 1578.24] | 24 nM |
| VLAEAMGQV [Peptide 1539.05] | 75 nM |

Using the record for YVIGTQQAV [Peptide 9013.0024] , state its measured IC50.
84 nM

Using the record for FQKYKTLFV [Peptide 1578.54] , state its measured IC50.
419 nM

Using the record for GQFRVYPEV [Peptide 9013.0038] , state its measured IC50.
43 nM

Using the record for YTLHVIKSDV [Peptide 9013.0151] , state its measured IC50.
54 nM

Using the record for VLEGKEVLLLV [Peptide 9013.0273] , state its measured IC50.
4610 nM
